Molecular target: UniProtKB P08581
Sequence (P08581 25-1390): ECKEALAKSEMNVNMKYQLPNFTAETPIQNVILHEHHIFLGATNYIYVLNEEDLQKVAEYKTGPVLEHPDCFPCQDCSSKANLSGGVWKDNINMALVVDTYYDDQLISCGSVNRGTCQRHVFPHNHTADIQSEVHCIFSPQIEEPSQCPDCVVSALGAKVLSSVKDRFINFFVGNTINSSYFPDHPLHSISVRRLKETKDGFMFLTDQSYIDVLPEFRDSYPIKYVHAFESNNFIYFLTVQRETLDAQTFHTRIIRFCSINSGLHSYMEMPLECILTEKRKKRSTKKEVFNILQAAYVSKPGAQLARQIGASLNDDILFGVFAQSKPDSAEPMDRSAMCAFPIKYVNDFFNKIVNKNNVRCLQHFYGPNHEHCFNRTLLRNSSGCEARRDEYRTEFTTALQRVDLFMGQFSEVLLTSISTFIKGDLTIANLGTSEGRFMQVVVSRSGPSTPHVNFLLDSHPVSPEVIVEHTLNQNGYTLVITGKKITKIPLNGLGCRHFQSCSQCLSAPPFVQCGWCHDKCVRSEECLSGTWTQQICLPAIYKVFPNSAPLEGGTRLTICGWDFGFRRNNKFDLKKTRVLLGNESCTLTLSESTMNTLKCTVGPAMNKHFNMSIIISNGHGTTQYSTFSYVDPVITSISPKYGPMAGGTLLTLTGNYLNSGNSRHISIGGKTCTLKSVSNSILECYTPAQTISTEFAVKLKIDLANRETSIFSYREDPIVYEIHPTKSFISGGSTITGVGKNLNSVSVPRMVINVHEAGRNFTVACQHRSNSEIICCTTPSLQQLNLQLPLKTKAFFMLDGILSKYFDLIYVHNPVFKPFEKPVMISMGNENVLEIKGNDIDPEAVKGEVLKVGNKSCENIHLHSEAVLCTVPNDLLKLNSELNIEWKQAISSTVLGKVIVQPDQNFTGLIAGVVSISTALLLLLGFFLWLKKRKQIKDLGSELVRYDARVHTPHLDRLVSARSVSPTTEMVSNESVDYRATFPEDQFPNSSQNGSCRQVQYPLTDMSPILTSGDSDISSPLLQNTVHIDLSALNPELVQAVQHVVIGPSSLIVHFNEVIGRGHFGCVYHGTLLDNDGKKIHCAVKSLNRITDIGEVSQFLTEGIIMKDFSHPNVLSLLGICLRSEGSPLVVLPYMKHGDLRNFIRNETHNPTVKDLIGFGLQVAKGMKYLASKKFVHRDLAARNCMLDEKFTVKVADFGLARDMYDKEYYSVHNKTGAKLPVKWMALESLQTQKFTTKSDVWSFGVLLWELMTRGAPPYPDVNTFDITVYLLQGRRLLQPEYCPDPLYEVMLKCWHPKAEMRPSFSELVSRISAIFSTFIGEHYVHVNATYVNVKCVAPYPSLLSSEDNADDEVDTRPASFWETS
Experiment: Met autophosphorylation ELISA in PC-3 cells
Type: cell-based
Set-up: endogenous in cells; host or cells: PC-3 prostate cancer cells (ATCC #CRL-1435)
Settings: Table 3 Cellular Activities, HGF-stimulated, phospho-Met ELISA, read-out: c-Met IC50
Procedure: PC-3 prostate cancer cells (ATCC #CRL-1435) were seeded at 4×10^4 cells/well onto 24-well plates (Greiner #662165), in DMEM (Thermo Fisher #11995-040) containing 10% FBS (Thermo Fisher #26140-079), 1% MEM NEAA (Thermo Fisher #11140-050), 1% GlutaMax (Thermo Fisher #35050-061), and 1% Penicillin Streptomycin (Thermo Fisher #15140-122). […] IC50 values were calculated by nonlinear regression analysis using a 4-parameter logistic curve fit in ActivityBase XE (IDBS).
pIC50: −log10 of the molar value. Counter-ions that a name gives are not always drawn.
readoutKind: pIC50

Problem: # get_value(readout= pIC50, system= UniProtKB P08581) for "Cc1ccc(C(=O)Nc2ccc(Oc3ccnc4cccnc34)c(F)c2)c(=O)n1-c1ccc(F)cn1"
Solution: ≥ 7.00

Problem: Now this one: "COc1cc2nccc(Oc3ccc(NC(=O)c4c(C)ncc(-c5ccc(F)cn5)c4O)cc3F)c2nc1OC"
Solution: ≥ 7.00

Problem: Repeat with "COc1cc2nccc(Oc3ccc(NC(=O)c4cc(C(C)=O)c(C)n(-c5ccco5)c4=O)cc3)c2nc1OC"
Solution: 6.00 to 6.52

Problem: Moving on to "COc1cc2nccc(Oc3ccc(NC(=O)c4ccc(C)n(-c5ccc(F)cn5)c4=O)cc3)c2nc1OC"
Solution: ≥ 7.00

Problem: Follow-up entry: COc1cc2nccc(Oc3ccc(NC(=O)c4c(C)nc(C)c(-c5ccc(C6CC6)o5)c4O)cc3F)c2nc1OC [Compound 155B]
Solution: ≥ 7.00

Problem: Param item: "CCOc1ccn(-c2ccc(F)cn2)c(=O)c1C(=O)Nc1ccc(Oc2ccnc3cc(OC)c(OC)nc23)c(F)c1"
Solution: ≥ 7.00

Problem: Now consider "COCc1nc(C)c(-c2ccc(F)cn2)c(O)c1C(=O)Nc1ccc(Oc2ccnc3cc(OC)c(OC)nc23)c(F)c1" and answer again.
Solution: ≥ 7.00

Problem: What do we get for "COc1cc2nccc(Oc3ccc(NC(=O)c4c5n(c(C)c(-c6cccs6)c4=O)CCOC5)cc3)c2nc1OC" ?
Solution: ≥ 7.00

Problem: Subsequent entry: "COc1cc2nccc(Oc3ccc(NC(=O)c4ccc(C)n(-c5ccncc5F)c4=O)cc3F)c2nc1OC"
Solution: ≥ 7.00

Problem: Another compound: "COc1cc2nccc(Oc3ccc(NC(=O)c4c(C)ccn(-c5ccc(F)cn5)c4=O)cc3F)c2nc1OC"
Solution: ≥ 7.00

Problem: Next up: "C=C(C)c1ccc(-c2c(C)ncc(C(=O)Nc3ccc(Oc4ccnc5cc(OC)c(OC)nc45)c(F)c3)c2O)o1"
Solution: 6.52 to 7.00

Problem: Try "COCCOc1cc2nccc(Oc3ccc(NC(=O)c4c(C)n(C)c(C)c(-c5cc6ccccc6o5)c4=O)cc3F)c2nc1OC" next.
Solution: 6.00 to 6.52

Problem: Item: "COc1cc2nccc(Oc3ccc(NC(=O)c4c(C)ncc(-c5sccc5C)c4O)cc3F)c2nc1OC"
Solution: ≥ 7.00

Problem: Same lookup for "COc1cc2nccc(Oc3ccc(NC(=O)c4c(C)n(C)c(C)c(-c5cccs5)c4=O)cc3F)c2nc1OC" , please.
Solution: ≥ 7.00

Problem: Try this compound too: "COc1cc2nccc(Oc3ccc(NC(=O)c4c5n(c(C)c(-c6ccoc6)c4=O)CCOC5)cc3F)c2nc1OC"
Solution: ≥ 7.00

Problem: Please give the result for "COc1cnc2c(Oc3ccc(NC(=O)c4ccc(C)n(-c5ccc(F)cn5)c4=O)cc3F)ccnc2c1" too.
Solution: ≥ 7.00

Problem: Next up: "COc1cc2nccc(Oc3ccc(NC(=O)c4cnc(C)c(-c5ccco5)c4O)cc3)c2nc1OC"
Solution: ≥ 7.00

Problem: Queued: "COc1cc2nccc(Oc3ccc(NC(=O)c4cc(C(C)=O)c(C)n(-c5ccco5)c4=O)cc3F)c2nc1OC"
Solution: 6.00 to 6.52

Problem: One more compound: COc1cc2nccc(Oc3ccc(NC(=O)c4ccc(C)n(-c5ccc(F)c(C)n5)c4=O)cc3F)c2nc1OC [Compound 227, hydrochloride]
Solution: ≥ 7.00

Problem: Try "COc1cc2nccc(Oc3ccc(NC(=O)c4c(C)nc(C)c(-c5ccoc5)c4O)cc3F)c2nc1OC" next.
Solution: ≥ 7.00

Problem: Now consider "COc1cc2nccc(Oc3ccc(NC(=O)c4c5n(cc(-c6cccs6)c4=O)CCOC5)cc3)c2nc1OC" .
Solution: ≥ 7.00
